system name: Adrenergic receptor alpha-1 (Homo sapiens) (UniProt P35348+P25100+P35368)
assay text: Tested in vitro for binding activity to Alpha-1 adrenergic receptor in field stimulated rabbit ear artery (REA).
protocol conditions: Oryctolagus cuniculus; target entry is the homologue from another species
assay metric: p[A]50
// no unit string in output, number only

Check out these entries, answers already filled in.
Oc1nc2c(O)ccc(CCNCCCCCCOCCc3ccccc3)c2s1	7.56
OCc1cc(C(O)CNCCCCCCOCCCCc2ccccc2)ccc1O (stereo unspecified)	5.49

Let us move to another entry and its p[A]50.
Given the entry O=c1[nH]c2c(O)ccc(CCNCCS(=O)(=O)CCCOCCc3ccccc3)c2s1 , report its measured p[A]50.
6.08

====

system name: Beta-2 adrenergic receptor (Cavia porcellus) (UniProt Q8K4Z4)
Sequence (Q8K4Z4 whole entry, looked up): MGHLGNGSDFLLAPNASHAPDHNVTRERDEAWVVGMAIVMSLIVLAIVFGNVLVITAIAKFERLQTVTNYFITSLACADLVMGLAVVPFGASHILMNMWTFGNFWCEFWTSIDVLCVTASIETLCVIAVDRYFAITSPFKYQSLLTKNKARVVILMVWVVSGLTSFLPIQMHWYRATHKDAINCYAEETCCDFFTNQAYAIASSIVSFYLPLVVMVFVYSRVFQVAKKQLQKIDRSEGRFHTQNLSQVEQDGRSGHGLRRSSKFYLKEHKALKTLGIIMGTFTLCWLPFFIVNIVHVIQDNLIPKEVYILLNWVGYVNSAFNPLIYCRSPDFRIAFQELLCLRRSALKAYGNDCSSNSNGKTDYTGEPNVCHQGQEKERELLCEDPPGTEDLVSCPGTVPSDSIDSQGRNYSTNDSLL
assay text: Tested in vitro for binding activity to Beta-2 adrenergic receptor in guinea pig trachea (GPT).
Assay type: tissue-based
assay metric: p[A]50
Field format: numeric only.

Reference set (4 entries):
OCc1cc(C(O)CNCCCCCCOCCCCc2ccccc2)ccc1O (stereo unspecified)	7.52
Oc1nc2c(O)ccc(CCNCCCCCCOCCc3ccccc3)c2s1	7.89
O=c1[nH]c2c(O)ccc(CCNCCS(=O)(=O)CCCOCCc3ccccc3)c2s1	7.95
Oc1nc2c(O)ccc(CCNCCCCCCNCCc3ccccc3)c2s1	7.19

Let us examine a further case.
Any idea what its p[A]50 is? The compound is Oc1nc2c(O)ccc(CCNCCCCCCOCCCCc3ccccc3)c2s1
7.33

====

system name: D(2) dopamine receptor (Bos taurus) (UniProt P20288)
Sequence (P20288 whole entry): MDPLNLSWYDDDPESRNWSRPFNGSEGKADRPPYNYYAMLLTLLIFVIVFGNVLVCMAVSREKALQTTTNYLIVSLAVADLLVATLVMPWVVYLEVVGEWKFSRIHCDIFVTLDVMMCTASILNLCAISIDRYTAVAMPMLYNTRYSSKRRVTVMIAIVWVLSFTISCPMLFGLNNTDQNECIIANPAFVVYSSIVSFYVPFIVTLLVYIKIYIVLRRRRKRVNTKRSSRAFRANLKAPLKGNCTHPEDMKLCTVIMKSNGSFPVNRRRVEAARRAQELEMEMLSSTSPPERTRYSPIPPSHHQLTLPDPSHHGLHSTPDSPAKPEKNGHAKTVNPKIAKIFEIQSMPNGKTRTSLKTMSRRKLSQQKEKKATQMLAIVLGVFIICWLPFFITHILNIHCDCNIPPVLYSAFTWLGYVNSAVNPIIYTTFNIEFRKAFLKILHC
assay text: Tested in vitro for binding activity to Dopamine receptor D2 in bovine pituitary membranes (D2-LB)
Assay type: cell membranes
assay metric: pKL

pKL lookup needed for Oc1nc2c(O)ccc(CCNCCCCCCOCCc3ccccc3)c2s1 , thanks.
6.93

Sample CCCN(CCC)CCc1ccc(O)c2nc(O)sc12 — what was its pKL?
6.85

====

The reader will find reported pKH values listed item by item below.
system name: D(2) dopamine receptor (Bos taurus) (UniProt P20288)
assay text: Tested in vitro for binding activity to Dopamine receptor D2 in bovine pituitary membranes (D2-LB)
Format: cell membranes
Keep the answer to the number alone.

Reference set (4 entries):
CCCN(CCC)CCc1ccc(O)c2nc(O)sc12	9.34
O=c1[nH]c2c(O)ccc(CCNCCS(=O)(=O)CCCOCCc3ccccc3)c2s1	8.61
Oc1nc2c(O)ccc(CCNCCCCCCNCCc3ccccc3)c2s1	8.99
Oc1nc2c(O)ccc(CCNCCCCCCOCCCCc3ccccc3)c2s1	9.33

Proceeding to the next molecule to report its pKH.
# query: pKH | item Oc1nc2c(O)ccc(CCNCCCCCCOCCc3ccccc3)c2s1 | system: D(2) dopamine receptor (Bos taurus) (UniProt P20288)
9.01

====

# p[A]50 annotations
system name: Adrenergic receptor alpha-1 (Homo sapiens) (UniProt P35348+P25100+P35368)
assay text: Tested in vitro for binding activity to Alpha-1 adrenergic receptor in field stimulated rabbit ear artery (REA).
protocol conditions: Oryctolagus cuniculus; target entry is the homologue from another species
Could you keep your reply to the number by itself?

Oc1nc2c(O)ccc(CCNCCCCCCNCCc3ccccc3)c2s1	6.81
Oc1nc2c(O)ccc(CCNCCCCCCOCCCCc3ccccc3)c2s1	6.85

Now examine the next entry.
If you can, please state the reported p[A]50 value of CCCN(CCC)CCc1ccc(O)c2nc(O)sc12 .
6.03

====

system name: D(2) dopamine receptor (Bos taurus)
assay text: Tested in vitro for binding activity to Dopamine receptor D2 in bovine pituitary membranes (D2-LB)
Format: cell membranes
assay metric: pKL
Give a plain numeric answer without units written out.

Consider the following illustrative entries.
Oc1nc2c(O)ccc(CCNCCCCCCNCCc3ccccc3)c2s1	6.44
O=c1[nH]c2c(O)ccc(CCNCCS(=O)(=O)CCCOCCc3ccccc3)c2s1	6.48

What value of measured pKL is listed for Oc1nc2c(O)ccc(CCNCCCCCCOCCCCc3ccccc3)c2s1 ?
7.11
